Target: c-Src SH2;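 note: peptide library displayed on the E. coli surface as eCPX fusions, selected cells deep-sequenced, score is each peptide's frequency after selection divided by its frequency in the input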
Assay: SH2 binding enrichment of the phosphorylated peptide, bacterial display (enrichment ratio); higher = better substrate or ligand; peptides without Tyr show the background
Quantity Kind: SH2 binding enrichment

For orientation, consider the following solved cases.
{"Input Sequence": "PLFKIYVAELI [MRPL28_Y230]", "Endpoint Result": 0.574}
{"Input Sequence": "PPPELYFVKVD [TERT_Y707]", "Endpoint Result": 0.534}
{"Input Sequence": "KAFDMYSGDVM [FAM3D_Y122]", "Endpoint Result": 0.462}
{"Input Sequence": "KLPDAYEPLIL [G6PD_Y437_R439P]", "Endpoint Result": 1.49}

(P) VATRWYWSPEL [CDKL5_Y177_R178W]
(Q) CTLSVYRQLHN [LUZP1_Y1036]
## Input Recorded SH2 binding enrichment values differ for P and Q ; which one is higher? Pick one and reply with its label.
## Output P
(P: 1.94, Q: 0.464)
